Reference source: patent US8343990B2

Biological target: GPR119 receptor (UniProt Q8TDV5, S309L, species not given)
Assay: GPR119 signaling, cyclic AMP (cAMP) homogenous time resolved fluorescence (HTRF) assay
Conditions: CHO cells with Gα15 and murine GPR119, or HEK293 Flp-In cells with human GPR119 S309L; table does not say which; read-out: Activity: inflection points, denoted as EC50 values (agonist activation of GPR119, cAMP)
Excerpt: Measurement of GPR119 Signaling Using a Cyclic AMP (cAMP) Homogenous Time Resolved Fluorescence (HTRF) Assay Chinese hamster ovary (CHO) cell lines stably transfected with the permissive guanine nucleotide binding protein alpha 15 (Gα15) and […] GPR119 were maintained in DMEM media containing FBS, penicillin-streptomycin, puromycin, and G418 (geneticin). […]
pEC50: −log10 of the molar value.
measureName: pEC50

Please review the following examples before continuing.
>  <molecule>
Cc1nnc(-c2ccc(OCC[C@H]3C[C@H]3C3CCN(c4ncccn4)CC3)cc2F)o1 (racemic)

>  <experimentalTarget>
GPR119 receptor (UniProt Q8TDV5, S309L, species not given)

>  <observedMeasurement>
> 8.00

$$$$
>  <molecule>
Clc1cnc(N2CCC(C3CC3CCOc3ccc(-n4ccnn4)cn3)CC2)nc1 (single isomer, unassigned) [Ex 55a]

>  <experimentalTarget>
GPR119 receptor (UniProt Q8TDV5, S309L, species not given)

>  <observedMeasurement>
> 8.00

$$$$
>  <molecule>
CS(=O)(=O)c1ccc(OCC[C@H]2C[C@@H]2C2CCN(c3ncc(Cl)cn3)CC2)cc1

>  <experimentalTarget>
GPR119 receptor (UniProt Q8TDV5, S309L, species not given)

>  <observedMeasurement>
7.30 to 8.00

$$$$
>  <molecule>
Clc1cnc(N2CCC(C3CC3CCOc3ccc(-c4cn[nH]c4)cc3)CC2)nc1 (racemic)

>  <experimentalTarget>
GPR119 receptor (UniProt Q8TDV5, S309L, species not given)

>  <observedMeasurement>
6.70 to 7.30

$$$$
>  <molecule>
Fc1cnc(N2CCC(C3CC3CCOc3ccc(-n4ccnn4)cc3)CC2)nc1 (single isomer, unassigned) [Ex 83bF]

>  <experimentalTarget>
GPR119 receptor (UniProt Q8TDV5, S309L, species not given)

>  <observedMeasurement>
6.70 to 7.30

$$$$

So what's the measured pEC50 for this one? Cc1nnc(-c2cccc(OCCC3CC3C3CCN(c4ncc(Cl)cn4)CC3)c2)o1 (racemic)
< 6.70

====

List of EC50 values.
Biological target: GPR119 receptor (UniProt Q8TDV5, S309L, species not given)
Assay: GPR119 signaling, cyclic AMP (cAMP) homogenous time resolved fluorescence (HTRF) assay
Type: cell-based
Settings: CHO cells with Gα15 and murine GPR119, or HEK293 Flp-In cells with human GPR119 S309L; table does not say which; read-out: Activity: inflection points, denoted as EC50 values (agonist activation of GPR119, cAMP)

>  <molecule>
Cc1cnc(N2CCC(C3CC3CCOc3ccc(-n4cnnn4)c(F)c3)CC2)nc1 (racemic) [Ex 30e]

>  <measureName>
EC50

>  <observedMeasurement>
< 10 nM

$$$$
>  <molecule>
Clc1cnc(N2CCC(C3CC3CCOc3ccc(-c4ncon4)cc3)CC2)nc1 (racemic) [Ex 17]

>  <measureName>
EC50

>  <observedMeasurement>
50 to 200 nM

$$$$
>  <molecule>
Cc1nc(C#N)cc(OCCC2CC2C2CCN(c3ncc(Cl)cn3)CC2)n1 (racemic) [Ex 100]

>  <measureName>
EC50

>  <observedMeasurement>
10 to 50 nM

$$$$
>  <molecule>
CS(=O)(=O)c1ccc(OC[C@@H]2C[C@H]2CC2CCN(c3ncc(Cl)cn3)CC2)cc1 (racemic) [Ex 101]

>  <measureName>
EC50

>  <observedMeasurement>
50 to 200 nM

$$$$
>  <molecule>
O=C(NC1CC1)c1ccc(OC[C@@H]2C[C@@H]2CC2CCN(c3ncc(Cl)cn3)CC2)cc1F (racemic) [Ex 117]

>  <measureName>
EC50

>  <observedMeasurement>
10 to 50 nM

$$$$

Query molecule follows.
Entry Clc1cnc(N2CCC(C3CC3CCOc3ccc(-c4ccn[nH]4)cc3)CC2)nc1 (racemic) [Ex 22] : reported EC50 = ?
10 to 50 nM

====

Target: GPR119 receptor (UniProt Q8TDV5, S309L, species not given)
Assay: GPR119 signaling, cyclic AMP (cAMP) homogenous time resolved fluorescence (HTRF) assay
Settings: CHO cells with Gα15 and murine GPR119, or HEK293 Flp-In cells with human GPR119 S309L; table does not say which; read-out: Activity: inflection points, denoted as EC50 values (agonist activation of GPR119, cAMP)
pEC50: −log10 of the molar value.
measureName: pEC50

These solved cases illustrate the format of a correct answer.
>  <molecule>
Clc1cnc(N2CCC(C3CC3CCOc3ccncc3)CC2)nc1 (racemic) [Ex 98]

>  <measureName>
pEC50

>  <observedMeasurement>
6.70 to 7.30

$$$$
>  <molecule>
Cc1cnc(N2CCC([C@H]3C[C@H]3CCOc3cc(C#N)nc(C)n3)CC2)nc1 (racemic) [Ex 40]

>  <measureName>
pEC50

>  <observedMeasurement>
> 8.00

$$$$

Turning now to a further molecule:
Observed pEC50 on GPR119 receptor (UniProt Q8TDV5, S309L, species not given) for Cc1cnc(N2CCC(C3CC3CCOc3ccc(-n4ccnn4)cc3)CC2)nc1 (racemic) [Ex 27c] , please.
7.30 to 8.00

====

List of EC50 values.
Target: GPR119 receptor (UniProt Q8TDV5, S309L, species not given)
Test: GPR119 signaling, cyclic AMP (cAMP) homogenous time resolved fluorescence (HTRF) assay
Settings: CHO cells with Gα15 and murine GPR119, or HEK293 Flp-In cells with human GPR119 S309L; table does not say which; read-out: Activity: inflection points, denoted as EC50 values (agonist activation of GPR119, cAMP)

>  <compound>
CS(=O)(=O)c1cccc(OCCC2CC2C2CCN(c3ncc(Cl)cn3)CC2)c1 (racemic)

>  <EC50>
< 10 nM

$$$$
>  <compound>
Clc1cnc(N2CCC(C3CC3CCOc3ccc(-n4cncn4)cc3)CC2)nc1 (racemic)

>  <EC50>
10 to 50 nM

$$$$
>  <compound>
N#Cc1ccc(OC[C@@H]2C[C@H]2CC2CCN(c3ncc(Cl)cn3)CC2)cc1F (racemic) [Ex 104]

>  <EC50>
50 to 200 nM

$$$$
>  <compound>
N#Cc1ccc(OCC[C@@H]2C[C@@H]2C2CCN(c3ncc(Cl)cn3)CC2)cn1 (racemic)

>  <EC50>
50 to 200 nM

$$$$
>  <compound>
Clc1cnc(N2CCC(C3CC3CCOc3ccncc3)CC2)nc1 (racemic) [Ex 92]

>  <EC50>
50 to 200 nM

$$$$
>  <compound>
Cc1cc(OCC[C@@H]2C[C@H]2C2CCN(c3ncc(Cl)cn3)CC2)nc(C#N)n1 (racemic)

>  <EC50>
10 to 50 nM

$$$$

Now look at this one.
// lookup EC50 for Cc1cnc(N2CCC(C3CC3CCOc3cc(C#N)nc(C)n3)CC2)nc1 (single isomer, unassigned)
< 10 nM
